biological target: ER-β (Gen Bank Accession #X99101) (Homo sapiens, UniProt Q92731); construct: made in house; host or cells: in vitro transcription/translation, TNT T7 Quick-Coupled reticulocyte lysate (Promega Cat.#L1170); test: Estrogen receptor binding, competition with [125I]-estradiol, ER-β; conditions: competition with 150 pM [125I]-estradiol; receptor-programmed reticulocyte lysate; overnight at 4° C.; Cheng-Prushoff from IC50; read-out: ER-β Ki
Sequence (Q92731 54-530 limits assumed): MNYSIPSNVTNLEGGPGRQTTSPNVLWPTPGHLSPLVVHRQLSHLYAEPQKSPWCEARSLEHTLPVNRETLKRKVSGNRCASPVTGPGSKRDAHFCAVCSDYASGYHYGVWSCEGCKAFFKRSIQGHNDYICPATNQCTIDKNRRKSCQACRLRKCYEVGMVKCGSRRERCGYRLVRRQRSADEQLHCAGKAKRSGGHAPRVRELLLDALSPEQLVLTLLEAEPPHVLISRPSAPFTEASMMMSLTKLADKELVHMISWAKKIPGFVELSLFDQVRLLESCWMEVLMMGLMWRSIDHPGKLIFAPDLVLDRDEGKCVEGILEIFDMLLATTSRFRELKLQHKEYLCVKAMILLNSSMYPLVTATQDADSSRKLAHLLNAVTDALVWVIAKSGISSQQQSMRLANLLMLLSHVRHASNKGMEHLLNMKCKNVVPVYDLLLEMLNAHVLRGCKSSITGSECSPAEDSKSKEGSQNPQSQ
Exercise: state measured pKi for each of the molecules provided.
Note: pKi values are expressed as the negative base-10 logarithm of concentration in M.

State the recorded pKi for this entry: COc1cc(-c2coc3cc(O)cc(O)c3c2=O)ccc1O
6.84

State the recorded pKi for this entry: Cc1c(-c2ccc(O)cc2)c(=O)oc2cc(O)ccc12
7.92

State the recorded pKi for this entry: O=c1c(-c2ccc3ccccc3c2)coc2cc(O)cc(O)c12
6.82
